molecular target: EGFR 525-Fc (human) (UniProt P00533); test: direct binding ELISA, single point; clone captured by anti-His, 50 nM receptor-Fc, anti-human Fc HRP
Grouping rule (A450): bin 0: < 1 A450; bin 1: ≥ 1 A450 and < 2 A450; bin 2: ≥ 2 A450

{"binder": "679A01 (designed binder, 10Fn3-based clone expressed in E. coli as His6 tagged protein; not shown: His6 tag) VSDVPRDLEVVAATPTSLLISWARYAGSDRYYRITYGETGGNSPVQEFTVPDVPFTATISGLKPGVDYTITVYAVTMGHAPTVDIHWTPSPISINYRT", "discrete_label": "bin 1"}
{"binder": "867A01 (designed binder, 10Fn3-based clone expressed in E. coli as His6 tagged protein; not shown: His6 tag) VSDVPRDLEVVAATPTSLLISWQQQHTNYRYYRITYGETGGNSPVQEFTVPGRASTATISGLKPGVDYTITVYAVTEHPYYGDPPISINYRT", "discrete_label": "bin 0"}
{"binder": "679G06 (designed binder, 10Fn3-based clone expressed in E. coli as His6 tagged protein; not shown: His6 tag) VSDVPRDLEVVAATPTSLLISWYSDYYDNRYYRITYGETGGNSPVQEFTVPRYMMTATISGLKPGVDYTITVYAVTYSYHDPNPMMPISINYRT", "discrete_label": "bin 0"}
{"binder": "867B08 (designed binder, 10Fn3-based clone expressed in E. coli as His6 tagged protein; not shown: His6 tag) VSDVPRDLEVVAATPTSLLISWSGSYKSYRYYRITYGETGGNSPVQEFTVPHYDHATATISGLKPGVDYTITVYAVTVDYTAVQVSYPISINYRT", "discrete_label": "bin 2"}
{"binder": "679F09 (designed binder, 10Fn3-based clone expressed in E. coli as His6 tagged protein; also called clone 679F09; not shown: His6 tag) VSDVPRDLEVVAATPTSLLISWQVPRPMYQRYYRITYGETGGNSPVQEFTVPGGVRTATISGLKPGVDYTITVYAVTDYMHSEYRQYPISINYRT", "discrete_label": "bin 2"}
{"binder": "867E02 (designed binder, 10Fn3-based clone expressed in E. coli as His6 tagged protein; not shown: His6 tag) VSDVPRDLEVVAATPTSLLISWIRRAKPGRYYRITYGETGGNSPVQEFTVPDVPWTATISGLKPGVDYTITVYAVTLDGVRRVGYLDHPISINYRT", "discrete_label": "bin 1"}
{"binder": "867H08 (designed binder, 10Fn3-based clone expressed in E. coli as His6 tagged protein; not shown: His6 tag) VSDVPRDLEVVAATPTSLLISWLRVPAYDRYYRITYGETGGNSPVQEFTVPDVPWTATISGLKPGVDYTITVYAVTLDESDMRVGVPISINYRT", "discrete_label": "bin 1"}
{"binder": "867B09 (designed binder, 10Fn3-based clone expressed in E. coli as His6 tagged protein; not shown: His6 tag) VSDVPRDLEVVAATPTSLLISWYLSHSYMRYYRITYGETGGNSPVQEFTVPVIHYTATISGLKPGVDYTITVYAVTSDKISVTVSGPISINYRT", "discrete_label": "bin 2"}
{"binder": "867C07 (designed binder, 10Fn3-based clone expressed in E. coli as His6 tagged protein; not shown: His6 tag) VSDVPRDLEVVAATPTSLLISWHSNYVDYRYYRITYGETGGNSPVQEFTVPHISDITATISGLKPGVDYTITVYAVTVEDMVRESYPPISINYRT", "discrete_label": "bin 2"}
